# Experimental system: T1, 14‐3‐3ε (human, UniProt P62258 1-255)
# T1 construct: 14-3-3 epsilon, human, full-length protein from the pProEx HTb-His-14-3-3 construct; Written as the protomer; tag removal is told only for the ∆C proteins; source: E. coli BL21(DE3), purified (Ni2+-NTA, dialysis)
# T1 sequence (looked up): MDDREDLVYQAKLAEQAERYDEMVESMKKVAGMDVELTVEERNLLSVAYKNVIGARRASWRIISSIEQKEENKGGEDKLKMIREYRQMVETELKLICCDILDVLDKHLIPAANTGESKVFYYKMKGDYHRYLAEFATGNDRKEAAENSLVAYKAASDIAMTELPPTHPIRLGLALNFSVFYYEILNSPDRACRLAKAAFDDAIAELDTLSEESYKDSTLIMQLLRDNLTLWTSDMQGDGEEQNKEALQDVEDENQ
# Test: fluorescence polarisation; fluorescence anisotropy, direct titration: 14-3-3 protein titrated (1/2 dilution series) against 50 nM FAM-Ahx tracer peptide; 10 mM HEPES, 150 mM NaCl, 0.1% Tween 20, 0.1% BSA, pH 7.4; 384 well plates, triplicates; protein concentration as 14-3-3 monomer; 1:1 fit, biphasic curves fitted as two separate 1:1 events (Kd1, Kd2)
# Condition description: both partners purified
[ ]: non-standard residue; d: D form. pS = N[C@@H](COP(=O)(O)O)C(=O)O; FAM = 5,6-carboxyfluorescein; Ahx = NCCCCCC(=O)O
Recorded pKd, one value per entry.
Interpret pKd as the negative base-10 log of the concentration measured in mol/L.

1. {FAM-Ahx}-DCRRTI[pS]APVVRPK-NH2 (Tracer form used in the FA assays; source: synthetic peptide (Fmoc SPPS, HPLC purified)) [FAM‐Ahx‐hDMX_(361‐374) ^pSer367]: 5.57
2. {FAM-Ahx}-SRRRAI[pS]ETEEN-NH2 (hDM2 (human double minute 2 protein), human, residues 160-171; Tracer form used in the FA assays; also called hDM2_(160‐171) ^Ser166; source: synthetic peptide (Fmoc SPPS, HPLC purified)) [FAM‐Ahx‐hDM2_(160‐171) ^pSer166]: 4.64

Now turn to the next binder.
*Q* Return reported pKd; argument: {FAM-Ahx}-SKLTHSL[pS]TSDITAI-NH2 (hDMX (human double minute 4 protein, hDM4), human, residues 335-349; Tracer form used in the FA assays; source: synthetic peptide (Fmoc SPPS, HPLC purified)) [FAM‐Ahx‐hDMX_(335‐349) ^pSer342]
*A* 4.27
